The origin of these recorded values is patent US20240409634A1.

# study_system: human CD33 on CD33-expressing THP-1 cells (human, UniProt P20138 18-364)
# Sequence (P20138 18-364): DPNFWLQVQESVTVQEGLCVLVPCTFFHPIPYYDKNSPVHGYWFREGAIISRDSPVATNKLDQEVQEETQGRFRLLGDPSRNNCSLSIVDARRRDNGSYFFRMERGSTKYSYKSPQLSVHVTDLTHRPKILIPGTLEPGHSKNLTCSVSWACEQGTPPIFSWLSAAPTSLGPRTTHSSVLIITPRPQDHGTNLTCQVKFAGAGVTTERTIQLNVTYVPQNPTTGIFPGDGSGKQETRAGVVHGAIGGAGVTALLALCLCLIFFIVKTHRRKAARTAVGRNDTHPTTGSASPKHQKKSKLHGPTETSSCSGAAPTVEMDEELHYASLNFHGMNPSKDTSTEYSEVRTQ
# protocol_notes: cell-based or functional assay
Cytotox EC50 (nM) Donor 104 by entry:

{"binder": "scFv-VHH bispecific molecule JL6 x 5D3 (scFv (VL-L-VH)-L-VHH with C-tag) (bispecific antibody) QSVLTQPPSASGTPGQRVTISCSGSSSNIGSNPVNWYQQLPGTAPKLLIYSNNQRPSGVPDRFSGSKSGTSASLAISGLQSEDEADYFCAAWDDSLNGPVFGGGTKLTVLGGSEGKSSGSGSESKSTGGSQVQLQESGPGLVKPSETLSLTCTVSGGSISSYYWGWIRQPPGKGLEWIGYIYYSGSTNYNPSLKSRVTISVDTSKNQFSLKLSSVTAADTAVYYCARMWEILGFDPWGQGTLVTVSSGGGGSEVQLVESGGGLVQAGGSLRLSCAASGRPFSNYAMGWFRQAPGKEREFVTVISWSGGSTYYADSVKGRFTISRDNAKNTVYLQMNSLKPEDTAVYYCAAQFSGASTVVAGTALDYDYWGQGTRVTVSSAAAEPEA", "Cytotox EC50 (nM) Donor 104": 0.0044}
{"binder": "scFv-VHH bispecific molecule JL1 x 6H4 (scFv (VL-L-VH)-L-VHH with C-tag) (bispecific antibody) DIVMTQSPLSLPVTPGEPASISCKSSQSLLFSNGYKFLDWYLQRPGQSPQLLIYLGSYRASGVPDRFSGSGSGTDFTLKISRVEAEDVGLYYCMQALQTPPTFGGGTKVEIKGGSEGKSSGSGSESKSTGGSEVQLVESGGGLVQPGGSLKVSCEASGFTFSVSAIHWVRQASGKGLEWIGRIRSKGNSYATAYAASVKGRFTISRDDSKNTAYLQMDSLKTEDTAVYYCTRHNDKWNYYGLDVWGQGTTVTVSSGGGGSEVQLVESGGGLVQAGGSLRLSCAASGRPFSNYGMGWFRQAPGKKREFVAGISWSGGSTDYADSVKGRFTISRDNAKNTVYLQMNSLKPEDTAVYYCAAVFSGAETAYYPSDDYDYWGQGTQVTVSSAAAEPEA", "Cytotox EC50 (nM) Donor 104": 0.011}
{"binder": "scFv-VHH bispecific molecule JL2 x 5D3 (scFv (VL-L-VH)-L-VHH with C-tag) (bispecific antibody) DIVMTQSPLSLPVTPGEPASISCRSSQSLLHSDGYNYLDWYLQKSGQSPQLLIYLGSYRASGVPDRFSGSGSGTDFTLKISRVEAEDVGIYYCMQVLQTPWTFGQGTKVEIKGGSEGKSSGSGSESKSTGGSEVQLVESGGGLVQPGGSLRLSCVVSGFTFSSYWMTWVRQAPGKGLEWVANIKQDGSERYYVDSVKGRFTISRDSAKNSLYLQMNSLRAEDTAVYYCAREVGYNWNQGGYFDYWGQGTLVTVSSGGGGSEVQLVESGGGLVQAGGSLRLSCAASGRPFSNYAMGWFRQAPGKEREFVTVISWSGGSTYYADSVKGRFTISRDNAKNTVYLQMNSLKPEDTAVYYCAAQFSGASTVVAGTALDYDYWGQGTRVTVSSAAAEPEA", "Cytotox EC50 (nM) Donor 104": 0.0027}
